# measuredOn: Sodium/glucose cotransporter 2 (Homo sapiens)
# Sequence (P31639 whole entry): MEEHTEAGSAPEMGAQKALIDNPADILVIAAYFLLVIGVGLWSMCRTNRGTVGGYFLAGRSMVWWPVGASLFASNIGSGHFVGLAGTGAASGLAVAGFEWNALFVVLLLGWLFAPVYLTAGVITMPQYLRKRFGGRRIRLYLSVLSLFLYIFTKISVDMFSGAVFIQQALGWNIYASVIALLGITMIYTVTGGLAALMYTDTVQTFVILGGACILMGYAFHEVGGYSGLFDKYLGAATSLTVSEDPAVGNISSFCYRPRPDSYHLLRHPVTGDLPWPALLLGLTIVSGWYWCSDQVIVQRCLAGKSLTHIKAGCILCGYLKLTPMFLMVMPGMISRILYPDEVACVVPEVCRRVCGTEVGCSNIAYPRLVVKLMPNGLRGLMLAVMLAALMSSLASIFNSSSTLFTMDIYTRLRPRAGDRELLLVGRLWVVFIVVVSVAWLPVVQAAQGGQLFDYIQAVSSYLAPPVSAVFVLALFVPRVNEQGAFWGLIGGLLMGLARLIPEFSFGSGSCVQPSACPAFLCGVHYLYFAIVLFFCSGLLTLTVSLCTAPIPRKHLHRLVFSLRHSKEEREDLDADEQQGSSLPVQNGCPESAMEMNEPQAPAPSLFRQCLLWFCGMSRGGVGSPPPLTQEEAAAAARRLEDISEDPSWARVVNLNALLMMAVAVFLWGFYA
# assayRemarks: Inhibition of full-length human SGLT2 expressed in CHO cells assessed as decrease in [14C]-methyl alpha-D-glucopyranoside uptake after 1 hr by liquid scintillation counting method
pIC50: −log10 of the molar value.
propertyLabel: pIC50

Here are 2 compounds together with their reported answers.
So for `CCOc1ccc(Cc2cc([C@@H]3O[C@H](CO)[C@@H](O)[C@H](O)[C@H]3O)c(O)cc2Cl)cc1` , the logged pIC50 turned out to be 8.99

// sample `Cc1ccc(Cc2cc([C@@H]3O[C@H](CO)[C@@H](O)[C@H](O)[C@H]3O)c(O)cc2Cl)cc1` , its pIC50 was 9.09

[1] CCOc1ccc(Cc2ccc(O)c([C@@H]3O[C@H](CO)[C@@H](O)[C@H](O)[C@H]3O)c2)cc1
[2] COc1ccc(Cc2cc([C@@H]3O[C@H](CO)[C@@H](O)[C@H](O)[C@H]3O)c(O)cc2Cl)cc1
Input: I'm curious whether 1 or 2 has the smaller pIC50 number. Which is it? Please indicate the selected item by its label.
Output: 1
